Sourced from patent US8198307B2

Target: MCH R1 (melanine-concentrating hormone receptor-1) (Homo sapiens, UniProt Q99705)
Construct: purchased Euroscreen, Gosselies, Belgium
Sequence (Q99705 whole entry, species assumed): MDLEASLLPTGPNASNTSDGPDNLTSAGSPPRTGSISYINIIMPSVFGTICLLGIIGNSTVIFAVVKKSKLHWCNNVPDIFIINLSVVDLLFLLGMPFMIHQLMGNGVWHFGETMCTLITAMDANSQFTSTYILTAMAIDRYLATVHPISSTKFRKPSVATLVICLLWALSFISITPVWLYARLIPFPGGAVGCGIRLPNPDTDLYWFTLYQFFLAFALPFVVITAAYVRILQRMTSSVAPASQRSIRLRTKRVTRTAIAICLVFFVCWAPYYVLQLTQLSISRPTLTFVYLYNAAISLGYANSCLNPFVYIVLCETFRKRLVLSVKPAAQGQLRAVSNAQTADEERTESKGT
Experiment: Inhibitory effects on MCH R1 binding (Eu-MCH time-resolved fluorescence binding assay)
Conditions: concentration inhibiting the binding of MCH (Eu-MCH, 2 nM) to MCH R1 by 50% in vitro; TRF readout; test range 1 nM to 10 μM; read-out: IC50
pIC50: −log10 of the molar value.
measured parameter: pIC50

> print(dat)
                                smiles.data                              assay.system  measured.parameter  value.reported
1  CC(=O)Nc1cccc(C2CCN(CCCn3c(-c4cccc(Cl)c4)nc4ccccc43)CC2)c1  MCH R1 (melanine-concentrating hormone receptor-1) (Homo sapiens, UniProt Q99705)               pIC50            8.30

(P) CC(=O)Nc1cccc(C2CCN(CCCn3c(-c4ccc(Br)cc4)nc4ccccc43)CC2)c1
(Q) CC(=O)Nc1cccc(C2CCN(CCCn3c(-c4ccccc4)nc4cc(Br)c(C)nc43)CC2)c1
Ask: Please tell me which of the two, P or Q , has the higher reported pIC50 value. Please respond with the label that marks your chosen entry.
Reply: P
(P: 8.30, Q: 6.96)

(A) CC(=O)Nc1cccc(C2CCN(CCCn3c(-c4ccc(Cl)cc4)nc4cc(C(N)=O)ccc43)CC2)c1
(B) COC(=O)c1cccc(-c2nc3ccccc3n2CCCN2CCC(c3cccc(NC(C)=O)c3)CC2)c1
(C) CC(=O)Nc1cccc(C2CCN(CCCn3c(-c4ccccc4)nc4ccc(Br)cc43)CC2)c1
(D) CC(=O)Nc1cccc(C2CCN(CCCn3c(CCc4cccnc4)nc4ccccc43)CC2)c1
Ask: Could you please order the items by pIC50, going from the lowest number to the highest? Output spec: labels arranged per the requested ranking.
Reply: B, A, C, D
(B: 7.22, A: 8.10, C: 8.52, D: 9.00)

(A) CC(=O)Nc1cccc(C2CCN(CCCn3c(-c4ccccc4)nc4cc(C)c(C)cc43)CC2)c1
(B) CC(=O)Nc1cccc(C2CCN(CCCn3c(Cc4cccnc4)nc4ccccc43)CC2)c1
(C) CC(=O)Nc1cccc(C2CCN(CCCn3c(-c4ccccc4)nc4nc(C)ccc43)CC2)c1
(D) CC(=O)Nc1cccc(C2CCN(CCn3c(-c4ccc(Cl)cc4)nc4ccccc43)CC2)c1
Ask: Could you please order the items by pIC50, going from the lowest number to the highest? Output spec: labels arranged per the requested ranking.
Reply: D, B, C, A
(D: 5.22, B: 7.33, C: 7.64, A: 8.30)

(A) CCc1nc2cc(Br)c(C)nc2n1CCCN1CCC(c2cccc(NC(C)=O)c2)CC1
(B) CCCCc1nc2cc(Br)c(C)nc2n1CCCN1CCC(c2cccc(NC(=O)C(C)C)c2)CC1
Ask: Please tell me which of the two, A or B , has the higher reported pIC50 value. Please respond with the label that marks your chosen entry.
Reply: B
